Tested on: 575 putative partners (preys) of 22 WT SH3-containing proteins
Assay: DHFR-PCA on solid medium, WT and SH3-deleted baits (Fig. 1B)
Type: cell-based, Saccharomyces cerevisiae
Design: key: 0: SH3-independent; 1: SH3-dependent PPIs; 2: SH3-inhibited PPIs
Settings: bait SLA1-3, label = prey
measure: Score

{"molecule": "YKL117W (protein, UniProt P28707 2-216, looked up) Co-chaperone protein SBA1: SDKVINPQVAWAQRSSTTDPERNYVLITVSIADCDAPELTIKPSYIELKAQSKPHVGDENVHHYQLHIDLYKEIIPEKTMHKVANGQHYFLKLYKKDLESEYWPRLTKEKVKYPYIKTDFDKWVDEDEQDEVEAEGNDAAQGMDFSQMMGGAGGAGGAGGMDFSQMMGGAGGAGSPDMAQLQQLLAQSGGNLDMGDFKENDEEDEEEEIEPEVKA", "recorded_result": 0}
{"molecule": "YNL229C (protein, UniProt P23202 2-354, looked up) Transcriptional regulator URE2: MNNNGNQVSNLSNALRQVNIGNRNSNTTTDQSNINFEFSTGVNNNNNNNSSSNNNNVQNNNSGRNGSQNNDNENNIKNTLEQHRQQQQAFSDMSHVEYSRITKFFQEQPLEGYTLFSHRSAPNGFKVAIVLSELGFHYNTIFLDFNLGEHRAPEFVSVNPNARVPALIDHGMDNLSIWESGAILLHLVNKYYKETGNPLLWSDDLADQSQINAWLFFQTSGHAPMIGQALHFRYFHSQKIASAVERYTDEVRRVYGVVEMALAERREALVMELDTENAAAYSAGTTPMSQSRFFDYPVWLVGDKLTIADLAFVPWNNVVDRIGINIKIEFPEVYKWTKHMMRRPAVIKALRGE", "recorded_result": 0}
{"molecule": "YNL084C (protein, UniProt P39013 1-349, looked up) Actin cytoskeleton-regulatory …: MPKLEQFEIKKYWQIFSGLKPIENKVNHDQVLPILYNSKLDSSVLNKIWFLADIDDDDNLDFEEFVICMRLIFDMVNKNISSVPDELPDWLIPGSKVNLIKERKKRKQIENADLPPKKEIKVDWYMSPDDLNQYEKIYNSCAKLTDGTITFNELSTKLSTKFFNISKTDLNKVWSLINPQNLPSIDRDPTFYFIHCLRQRNDLGAEIPASLPNSLAEVCNKKQLSYDLRSSQPPTKRKEEANEVDNLRDNGQNSSSDSSGSNVLSNEDSIKQKYASLTDDQVANMREQLEGLLNYKKSEKTQGGSKLSKRINIRSITDDLDNIEQQVEVLENYLNNKRHELQALQAEIN", "recorded_result": 0}
